target: Human IP6K1 (Homo sapiens); construct: GST (N, cleaved yes); made in house; host or cells: C43 E. coli, pGEX-6P-2; assay: IP6K1 high-throughput screen of the Sigma LOPAC (ADP-Glo Max, single point); type: biochemical; conditions: LOPAC single-point screen; Z-score relative to plate average and StDev;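 further: final compound concentration 10µM in 5% DMSO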
Sequence (Q92551 whole entry): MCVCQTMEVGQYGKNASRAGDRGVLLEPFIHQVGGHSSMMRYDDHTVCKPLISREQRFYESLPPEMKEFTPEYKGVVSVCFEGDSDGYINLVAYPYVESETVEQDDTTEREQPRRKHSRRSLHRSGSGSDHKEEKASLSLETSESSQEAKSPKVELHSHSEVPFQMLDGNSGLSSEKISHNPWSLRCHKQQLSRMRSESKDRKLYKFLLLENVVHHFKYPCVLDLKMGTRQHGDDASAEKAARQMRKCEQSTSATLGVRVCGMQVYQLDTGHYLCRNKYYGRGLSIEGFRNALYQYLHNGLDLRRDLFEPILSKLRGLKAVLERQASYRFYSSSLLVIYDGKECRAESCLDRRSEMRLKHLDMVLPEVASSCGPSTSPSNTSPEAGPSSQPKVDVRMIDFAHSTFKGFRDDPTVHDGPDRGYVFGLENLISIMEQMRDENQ
Structures can show the parent of a compound that is named as a salt.
Range-based classes on measured Z-score: bin 1 (below -0.9), bin 2 (-0.9 to below -0.6), bin 3 (-0.6 or more)

INSERT INTO assay_data (compound, discrete_label) VALUES
  ('CCn1c(=O)[nH]c2cc(Cl)c(Cl)cc21 [DCEBIO]', 'bin 2'),
  ('O=C(CCCN1CC=C(n2c(=O)[nH]c3ccccc32)CC1)c1ccc(F)cc1 [Droperidol]', 'bin 1'),
  ('NC(Cc1cc(O)c(O)cc1O)C(=O)O (racemic) [6-Hydroxy-DL-Dopa]', 'bin 1'),
  ('NC(CP(=O)(O)O)C(=O)O (racemic) [(±)-2-Amino-3-phosphonopropionic acid]', 'bin 2'),
  ('Oc1ccc(Cn2cc[nH]c2=S)cc1 [1-(4-Hydroxybenzyl)imidazole-2-thiol]', 'bin 3'),
  ('OC1(c2ccc(Cl)cc2)CCN(Cc2c[nH]c3ccccc23)CC1 [L-741,626]', 'bin 3'),
  ('N=C(N)c1ccc(N)cc1 [4-Aminobenzamidine dihydrochloride]', 'bin 2'),
  ('CC1CNCCN1S(=O)(=O)c1cccc2cnccc12.Cl.Cl (stereo not shown) [H-7 dihydrochloride]', 'bin 2'),
  ('CC(N)(Cc1ccc(O)c(O)c1)C(=O)O (racemic)', 'bin 1'),
  ('O=C(O)[C@@H]1CCN1 [L-azetidine-2-carboxylic acid]', 'bin 3');
